EC50 values, listed per item
# study_target: recombinant human CB1 receptor expressed in CHO cells (Homo sapiens, UniProt P21554)
# Construct: expressed in transfected cells; CB1-CHO cell suspension for cAMP
# Sequence (P21554 whole entry): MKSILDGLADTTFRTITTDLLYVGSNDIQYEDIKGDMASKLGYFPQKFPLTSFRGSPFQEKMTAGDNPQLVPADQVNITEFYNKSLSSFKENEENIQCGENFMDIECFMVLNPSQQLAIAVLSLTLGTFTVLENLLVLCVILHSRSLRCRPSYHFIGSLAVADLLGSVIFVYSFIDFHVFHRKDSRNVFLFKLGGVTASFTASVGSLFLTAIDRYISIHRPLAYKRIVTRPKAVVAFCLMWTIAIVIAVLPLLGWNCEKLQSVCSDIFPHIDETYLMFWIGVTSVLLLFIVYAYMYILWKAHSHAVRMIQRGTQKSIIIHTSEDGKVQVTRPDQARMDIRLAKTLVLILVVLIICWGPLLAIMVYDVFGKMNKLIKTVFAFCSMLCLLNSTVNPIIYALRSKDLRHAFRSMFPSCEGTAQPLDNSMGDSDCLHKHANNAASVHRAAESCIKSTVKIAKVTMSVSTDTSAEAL
# assay_method_text: Cannabinoid Receptor-1 (CB1) Functional Activity Assay (cAMP)
# Type: cell-based
# condition_label: CB1-CHO cells, forskolin, intracellular cAMP; read-out: CB1 function activity EC50
property: EC50 (nM)

substance_smiles	study_target	value
COC(=O)c1cc(C(F)(F)F)cc(S(=O)(=O)N2CCN(C(=O)Cc3ccc(C(F)(F)F)cc3)CC2)c1	recombinant human CB1 receptor expressed in CHO cells (Homo sapiens, UniProt P21554)	0.7
O=C(c1ccccc1)N1CCN(S(=O)(=O)c2cc(C(F)(F)F)cc(C(F)(F)F)c2)CC1	recombinant human CB1 receptor expressed in CHO cells (Homo sapiens, UniProt P21554)	37.7
O=C(Cc1ccc(C(F)(F)F)cc1)N1CCN(S(=O)(=O)c2cc(C3CC3)cc(C(F)(F)F)c2)CC1	recombinant human CB1 receptor expressed in CHO cells (Homo sapiens, UniProt P21554)	1.09
O=C(N1CCCCC1)N1CCN(S(=O)(=O)c2cccc3ccccc23)CC1	recombinant human CB1 receptor expressed in CHO cells (Homo sapiens, UniProt P21554)	10.5
O=C(CC1CC1)N1CCN(S(=O)(=O)c2cccc3ccccc23)CC1	recombinant human CB1 receptor expressed in CHO cells (Homo sapiens, UniProt P21554)	1.1
O=C(C1CCCCC1)N1CCN(S(=O)(=O)c2cc(Cl)cc(Cl)c2)CC1	recombinant human CB1 receptor expressed in CHO cells (Homo sapiens, UniProt P21554)	0.41

###

# study_target: recombinant human CB1 receptor (Homo sapiens)
# Construct: expressed in transfected cells; CB1-CHO cell suspension for cAMP
# Sequence (P21554 whole entry): as above
# assay_method_text: Cannabinoid Receptor-1 (CB1) Binding Assay
pIC50: −log10 of the molar value.

compound	pIC50
O=C(C1CCCCC1)N1C2CCC1CN(S(=O)(=O)c1cccc3ccccc13)C2 [Example 114]	5.50
O=C(Cc1ccc(C(F)(F)F)cc1)N1CCN(S(=O)(=O)c2cc(C3CC3)cc(C(F)(F)F)c2)CC1 [Example 123]	8.91

###

# study_target: recombinant human CB1 receptor (Homo sapiens)
# Construct: expressed in transfected cells; CB1-CHO cell suspension for cAMP
# assay_method_text: Cannabinoid Receptor-1 (CB1) Binding Assay
# condition_label: recombinant human CB1 receptor in CHO cells, [3H]CP-55940 0.6 nM; read-out: CB1 binding IC50
# Description: Binding affinity determination is based on recombinant human CB1 receptor expressed in Chinese Hamster Ovary (CHO) cells (Felder et al, Mol. Pharmacol. 48: 443-450, 1995). […] The bound radiolabel is quantitated using scintillation counter. Apparent binding affinities for various compounds are calculated from IC50 values (DeBlasi et al., Trends Pharmacol Sci 10: 227-229, 1989).
Please assign criterion not met whenever IC50 is at or above 300 nM, and criterion met whenever it is below.

substance_smiles	class_name
O=C(c1ccccc1)N1CCN(S(=O)(=O)c2cc(C(F)(F)F)cc(C(F)(F)F)c2)CC1	criterion not met
O=C(N1CCCCC1)N1CCN(S(=O)(=O)c2cccc3ccccc23)CC1	criterion not met
O=C(C1CCCCC1)N1CCN(S(=O)(=O)c2cc(C(F)(F)F)cc(C(F)(F)F)c2)CC1	criterion met
COC(=O)c1cc(C(F)(F)F)cc(S(=O)(=O)N2CCN(C(=O)Cc3ccc(C(F)(F)F)cc3)CC2)c1	criterion met
O=C(C1CCCCC1)N1CCN(S(=O)(=O)c2cc(Cl)cc(Cl)c2)CC1	criterion not met

###

# study_target: recombinant human CB1 receptor expressed in CHO cells (Homo sapiens, UniProt P21554)
# Construct: expressed in transfected cells; CB1-CHO cell suspension for cAMP
# assay_method_text: Cannabinoid Receptor-1 (CB1) Functional Activity Assay (cAMP)
# Format: cell-based
Some compounds, each annotated with its measured EC50.
property: EC50 (nM)

compound	property	measure_unit	value
O=C(C1CCCCC1)N1CCN(S(=O)(=O)c2cc(C(F)(F)F)cc(C(F)(F)F)c2)CC1 [Example 132]	EC50	nM	1.07
O=C(C1CCCCC1)N1C2CCC1CN(S(=O)(=O)c1cccc3ccccc13)C2 [Example 114]	EC50	nM	15.1
